- System: Rattus norvegicus
- test_summary: Antinociceptive activity in Wistar albino rat assessed as latency in reaction time required for thermal stimulus-induced tail flicking at 30 mg/kg, po after 30 mins by analgesiometric analysis (RVb=3.33 +/- 0.21 seconds)
- Assay type: functional
value_type: Activity (s)
Kindly provide the numeric value in s only, without the unit symbol.

Using the record for CN1C(=O)C2ON=C(c3cn(-c4ccccc4)nc3-c3ccccc3)C2C1=O (stereo unspecified) , report its Activity.
3.33

# Activity lookup, item O=C1C2ON=C(c3cn(-c4ccccc4)nc3-c3ccccc3)C2C(=O)N1c1ccccc1 (stereo unspecified)
3.33

Activity lookup needed for CCOc1ccc(-c2nn(-c3ccccc3)cc2C2=NOC3C(=O)N(c4ccccc4)C(=O)C23)cc1 (stereo unspecified) , thanks.
3.16

If you can, please state the reported Activity value of Cc1ccc(N2C(=O)C3ON=C(c4cn(-c5ccccc5)nc4-c4ccc(Cl)cc4)C3C2=O)cc1 (stereo unspecified) .
3.33

Dear colleague, I am looking for the recorded Activity of the following molecule: O=C1C2ON=C(c3cn(-c4ccccc4)nc3-c3ccc(Cl)cc3)C2C(=O)N1c1ccccc1 (stereo unspecified)
3.33

Returns the measured Activity for the input molecule. Input: "Brc1ccc(-c2nn(-c3ccccc3)cc2-c2cc(-c3ccccc3)on2)cc1"
3.33

Entry "CCOC(=O)c1onc(-c2cn(-c3ccccc3)nc2-c2ccc(OC)cc2)c1C(=O)OCC" : reported Activity = ?
3.83

GET /values?readout=Activity&item= CN1C(=O)C2ON=C(c3cn(-c4ccccc4)nc3-c3ccc(Cl)cc3)C2C1=O (stereo unspecified)
3.33

Look at this molecule and give its reported Activity. "COc1ccc(-c2nn(-c3ccccc3)cc2-c2cc(-c3ccccc3)on2)cc1"
3.33

Requested read-out: Activity. Entry: "Clc1ccc(-c2nn(-c3ccccc3)cc2-c2cc(-c3ccccc3)on2)cc1"
3.83

Recorded Activity for CN1C(=O)C2ON=C(c3cn(-c4ccccc4)nc3-c3ccc(Br)cc3)C2C1=O (stereo unspecified) , please?
3.33

I'd like to know its Activity. The molecule in question is "CCCCc1cc(-c2cn(-c3ccccc3)nc2-c2ccc(Cl)cc2)no1"
3.33

What Activity value was documented for this molecule, O=C1C2ON=C(c3cn(-c4ccccc4)nc3-c3ccc(Br)cc3)C2C(=O)N1c1ccccc1 (stereo unspecified) ?
3.16

What does the data say about its Activity? Entry: "CCOC(=O)c1onc(-c2cn(-c3ccccc3)nc2-c2ccc(Br)cc2)c1C(=O)OCC"
3.33

// lookup Activity for CCOc1ccc(-c2nn(-c3ccccc3)cc2C2=NOC3C(=O)N(C)C(=O)C23)cc1 (stereo unspecified)
3.83

Name the reported Activity value associated with the molecule "CCOC(=O)c1onc(-c2cn(-c3ccccc3)nc2-c2ccc(Cl)cc2)c1C(=O)OCC"
3.83

----------
- Tested on: Mus musculus
- test_summary: Antinociceptive activity in Swiss albino mouse assessed as protection against acetic acid-induced abdominal constriction at 30 mg/kg, po measured for 10 mins after 5 mins of acetic acid challenge relative to control
- Assay type: functional, Abdomen
Give measured Activity for each item. Keep answers brief.
Express it in %; write the number only.

Item under review: CCOc1ccc(-c2nn(-c3ccccc3)cc2C2=NOC3C(=O)N(C)C(=O)C23)cc1 (stereo unspecified) . Reported Activity?
47.46

So what does the record say about Activity for "CCCCc1cc(-c2cn(-c3ccccc3)nc2-c2ccc(Cl)cc2)no1" ?
47.09

Look up Activity for this compound: CCOc1ccc(-c2nn(-c3ccccc3)cc2C2=NOC3C(=O)N(c4ccccc4)C(=O)C23)cc1 (stereo unspecified)
49.51

Suppose we examine the compound Cc1ccc(N2C(=O)C3ON=C(c4cn(-c5ccccc5)nc4-c4ccc(Cl)cc4)C3C2=O)cc1 (stereo unspecified) ; what Activity value has been reported?
42.75

Please look up its Activity: "CCOC(=O)c1onc(-c2cn(-c3ccccc3)nc2-c2ccc(Cl)cc2)c1C(=O)OCC"
55.29

Dear colleague, I am looking for the recorded Activity of the following compound: CN1C(=O)C2ON=C(c3cn(-c4ccccc4)nc3-c3ccccc3)C2C1=O (stereo unspecified)
30.58

Which Activity is listed for "Clc1ccc(-c2nn(-c3ccccc3)cc2-c2cc(-c3ccccc3)on2)cc1" ?
49.04

Suppose we examine the compound "CCOC(=O)c1onc(-c2cn(-c3ccccc3)nc2-c2ccc(Br)cc2)c1C(=O)OCC" ; what Activity value has been reported?
56.87

# input compound: O=C1C2ON=C(c3cn(-c4ccccc4)nc3-c3ccc(Br)cc3)C2C(=O)N1c1ccccc1 (stereo unspecified) ; wanted: its Activity
49.04

Item "CCOC(=O)c1onc(-c2cn(-c3ccccc3)nc2-c2ccc(OC)cc2)c1C(=O)OCC" has what recorded Activity?
57.65

What value of measured Activity is listed for "Brc1ccc(-c2nn(-c3ccccc3)cc2-c2cc(-c3ccccc3)on2)cc1" ?
31.39

If you can, please state the reported Activity value of O=C1C2ON=C(c3cn(-c4ccccc4)nc3-c3ccccc3)C2C(=O)N1c1ccccc1 (stereo unspecified) .
47.39

Entry CN1C(=O)C2ON=C(c3cn(-c4ccccc4)nc3-c3ccc(Br)cc3)C2C1=O (stereo unspecified) has what Activity?
40.4

Activity for "COc1ccc(-c2nn(-c3ccccc3)cc2-c2cc(-c3ccccc3)on2)cc1" ?
30.99

Entry CN1C(=O)C2ON=C(c3cn(-c4ccccc4)nc3-c3ccc(Cl)cc3)C2C1=O (stereo unspecified) : reported Activity = ?
23.15

Need Activity, item O=C1C2ON=C(c3cn(-c4ccccc4)nc3-c3ccc(Cl)cc3)C2C(=O)N1c1ccccc1 (stereo unspecified)
43.15

----------
- Test system: Rattus norvegicus
- test_summary: Antinociceptive activity in Wistar albino rat assessed as latency in reaction time required for thermal stimulus-induced tail flicking at 30 mg/kg, po after 120 mins by analgesiometric analysis (RVb=3.33 +/- 0.21 seconds)
- Type: functional
Assign yes to entries whose Activity meets or exceeds 6 s; assign no to the rest.

Given the entry CN1C(=O)C2ON=C(c3cn(-c4ccccc4)nc3-c3ccccc3)C2C1=O (stereo unspecified) , answer whether its Activity meets or surpasses 6 s.
no

Test whether the molecule CN1C(=O)C2ON=C(c3cn(-c4ccccc4)nc3-c3ccc(Cl)cc3)C2C1=O (stereo unspecified) records Activity of 6 s or higher.
yes

# bool: Activity of O=C1C2ON=C(c3cn(-c4ccccc4)nc3-c3ccc(Br)cc3)C2C(=O)N1c1ccccc1 (stereo unspecified) >= 6 s
yes

I'd appreciate it if you could say whether "CCOC(=O)c1onc(-c2cn(-c3ccccc3)nc2-c2ccc(Br)cc2)c1C(=O)OCC" has Activity at least equal to 6 s.
yes

Assess whether reported Activity for "CCOC(=O)c1onc(-c2cn(-c3ccccc3)nc2-c2ccc(OC)cc2)c1C(=O)OCC" sits at 6 s or higher.
yes

Please indicate if the recorded Activity for "Brc1ccc(-c2nn(-c3ccccc3)cc2-c2cc(-c3ccccc3)on2)cc1" meets or exceeds 6 s.
no

Does the reported Activity for "CCOC(=O)c1onc(-c2cn(-c3ccccc3)nc2-c2ccc(Cl)cc2)c1C(=O)OCC" fall at or above the 6 s mark?
yes

Is it the case that "Clc1ccc(-c2nn(-c3ccccc3)cc2-c2cc(-c3ccccc3)on2)cc1" has Activity reaching or exceeding 6 s?
yes

Does "CCCCc1cc(-c2cn(-c3ccccc3)nc2-c2ccc(Cl)cc2)no1" have a reported Activity of at least 6 s?
yes

I'd appreciate it if you could say whether CN1C(=O)C2ON=C(c3cn(-c4ccccc4)nc3-c3ccc(Br)cc3)C2C1=O (stereo unspecified) has Activity at least equal to 6 s.
yes

Determine whether this molecule has Activity no lower than 6 s: Cc1ccc(N2C(=O)C3ON=C(c4cn(-c5ccccc5)nc4-c4ccc(Cl)cc4)C3C2=O)cc1 (stereo unspecified)
no

Tell me whether Activity is at least 6 s here: O=C1C2ON=C(c3cn(-c4ccccc4)nc3-c3ccccc3)C2C(=O)N1c1ccccc1 (stereo unspecified)
yes

----------
- System: Rattus norvegicus
- test_summary: Antinociceptive activity in Wistar albino rat assessed as latency in reaction time required for thermal stimulus-induced tail flicking at 30 mg/kg, po after 60 mins by analgesiometric analysis (RVb=3.16 +/- 0.16 seconds)
- Format: functional
Lab note - cut at 7 s for Activity: TRUE if strictly below, FALSE if not.

Problem: For the compound "Brc1ccc(-c2nn(-c3ccccc3)cc2-c2cc(-c3ccccc3)on2)cc1" , is Activity under 7 s?
TRUE

Regarding CN1C(=O)C2ON=C(c3cn(-c4ccccc4)nc3-c3ccc(Cl)cc3)C2C1=O (stereo unspecified) , kindly confirm whether its Activity is beneath 7 s.
TRUE

Given Cc1ccc(N2C(=O)C3ON=C(c4cn(-c5ccccc5)nc4-c4ccc(Cl)cc4)C3C2=O)cc1 (stereo unspecified) , is recorded Activity strictly lower than 7 s?
TRUE

Find out if reported Activity for O=C1C2ON=C(c3cn(-c4ccccc4)nc3-c3ccc(Cl)cc3)C2C(=O)N1c1ccccc1 (stereo unspecified) is less than 7 s
TRUE

Given the entry CN1C(=O)C2ON=C(c3cn(-c4ccccc4)nc3-c3ccccc3)C2C1=O (stereo unspecified) , would its reported Activity be below 7 s?
TRUE

Does the reported Activity of "COc1ccc(-c2nn(-c3ccccc3)cc2-c2cc(-c3ccccc3)on2)cc1" stay below 7 s?
TRUE

Please indicate whether the reported Activity of CCOc1ccc(-c2nn(-c3ccccc3)cc2C2=NOC3C(=O)N(C)C(=O)C23)cc1 (stereo unspecified) is strictly below 7 s.
TRUE

Record "CCOC(=O)c1onc(-c2cn(-c3ccccc3)nc2-c2ccc(Cl)cc2)c1C(=O)OCC" : is its Activity strictly below 7 s?
FALSE

Given the entry "CCOC(=O)c1onc(-c2cn(-c3ccccc3)nc2-c2ccc(Br)cc2)c1C(=O)OCC" , would its reported Activity be below 7 s?
FALSE

Consider "CCOC(=O)c1onc(-c2cn(-c3ccccc3)nc2-c2ccc(OC)cc2)c1C(=O)OCC" . Does its Activity lie strictly below 7 s?
FALSE
